The reported numbers originate from PubChem BioAssay AID248.

Test system: L1210 leukemia ip in BDF1 mice, survival T/C
EXPERIMENT: NCI In Vivo Anticancer Drug Screen. Data for tumor model L1210 Leukemia (intraperitoneal) in B6D2F1 (BDF1) mice
CONDITION: endpoint: mean survival time; dose: 100.0 mg/kg/injection; schedule: Q01DX009 (ip); vehicle: Klucel (hydroxypropylcellulose) (HPC); higher = longer survival
Toxic doses and inconclusive results are not listed.
Parameter T/C: see the listing below.
QUANTITY: T/C

COMPOUND: COc1ccc(CCNC(=S)NC(=O)c2ccc(Cl)c(Cl)c2)cc1OC
MEASURED_TARGET: L1210 leukemia ip in BDF1 mice, survival T/C
ENDPOINT_VALUE: 91 % of control

COMPOUND: COc1ccc([N+](=O)[O-])cc1NC(=O)Oc1ccc(F)cc1Cl
MEASURED_TARGET: L1210 leukemia ip in BDF1 mice, survival T/C
ENDPOINT_VALUE: 111 % of control

COMPOUND: O=C(O)c1cc(Cl)nc(Cl)c1
MEASURED_TARGET: L1210 leukemia ip in BDF1 mice, survival T/C
ENDPOINT_VALUE: 97 % of control

COMPOUND: COc1ccc2c(c1)CC[C@@H]1[C@@H]2CC[C@@]2(C)[C@H]1CC[C@@]2(O)C(F)=C(F)F
MEASURED_TARGET: L1210 leukemia ip in BDF1 mice, survival T/C
ENDPOINT_VALUE: 107 % of control

COMPOUND: O=C(O)c1cc2oc3ccccc3c2cc1O
MEASURED_TARGET: L1210 leukemia ip in BDF1 mice, survival T/C
ENDPOINT_VALUE: 94 % of control

COMPOUND: O=C1C=CC(=O)N1c1ccc([N+](=O)[O-])cc1[N+](=O)[O-]
MEASURED_TARGET: L1210 leukemia ip in BDF1 mice, survival T/C
ENDPOINT_VALUE: 105 % of control

COMPOUND: Cc1ccc(C(=O)C2CC=CCC2C(=O)c2ccc(C)cc2)cc1 (centres undefined)
MEASURED_TARGET: L1210 leukemia ip in BDF1 mice, survival T/C
ENDPOINT_VALUE: 91 % of control

COMPOUND: Nc1ccccc1SC1CC(=O)N(c2cccc(Cl)c2)C1=O (centres undefined)
MEASURED_TARGET: L1210 leukemia ip in BDF1 mice, survival T/C
ENDPOINT_VALUE: 91 % of control

COMPOUND: O=C(OC1CCCCCCC1)C(F)(F)F
MEASURED_TARGET: L1210 leukemia ip in BDF1 mice, survival T/C
ENDPOINT_VALUE: 98 % of control

COMPOUND: CNC(=S)N/N=C/c1ccc(OC)c(OC)c1OC
MEASURED_TARGET: L1210 leukemia ip in BDF1 mice, survival T/C
ENDPOINT_VALUE: 102 % of control

COMPOUND: O=C(c1ccccc1)C(Br)c1ccc([N+](=O)[O-])cc1 (centres undefined)
MEASURED_TARGET: L1210 leukemia ip in BDF1 mice, survival T/C
ENDPOINT_VALUE: 99 % of control

COMPOUND: O=C(OCCO)c1cc(OCCO)nc(Cl)n1
MEASURED_TARGET: L1210 leukemia ip in BDF1 mice, survival T/C
ENDPOINT_VALUE: 100 % of control

COMPOUND: O=C(N/N=C/c1ccc(Cl)cc1Cl)c1cccc([N+](=O)[O-])c1
MEASURED_TARGET: L1210 leukemia ip in BDF1 mice, survival T/C
ENDPOINT_VALUE: 100 % of control

COMPOUND: Cc1ccc(S(=O)(=O)OCC2C3C=CC(C3)C2COS(=O)(=O)c2ccc(C)cc2)cc1 (centres undefined)
MEASURED_TARGET: L1210 leukemia ip in BDF1 mice, survival T/C
ENDPOINT_VALUE: 92 % of control

COMPOUND: CN(C(=O)N(C)c1ccccc1)c1ccccc1
MEASURED_TARGET: L1210 leukemia ip in BDF1 mice, survival T/C
ENDPOINT_VALUE: 102 % of control

COMPOUND: CCOC(=O)c1cnc(SC)nc1NCCc1ccccc1
MEASURED_TARGET: L1210 leukemia ip in BDF1 mice, survival T/C
ENDPOINT_VALUE: 98 % of control

COMPOUND: COC(=O)c1ccccc1NC(=O)c1ccco1
MEASURED_TARGET: L1210 leukemia ip in BDF1 mice, survival T/C
ENDPOINT_VALUE: 97 % of control

COMPOUND: CCCCCCCCNC(=O)CCCCC(=O)NCCCCCCCC
MEASURED_TARGET: L1210 leukemia ip in BDF1 mice, survival T/C
ENDPOINT_VALUE: 91 % of control

COMPOUND: COc1ccc(C(=O)Nc2ccccc2)cc1[N+](=O)[O-]
MEASURED_TARGET: L1210 leukemia ip in BDF1 mice, survival T/C
ENDPOINT_VALUE: 96 % of control
